Please provide measured TF binding intensity for the entries that follow.
# System Under Test: ETS1 (UniProt P14921)
# Sequence: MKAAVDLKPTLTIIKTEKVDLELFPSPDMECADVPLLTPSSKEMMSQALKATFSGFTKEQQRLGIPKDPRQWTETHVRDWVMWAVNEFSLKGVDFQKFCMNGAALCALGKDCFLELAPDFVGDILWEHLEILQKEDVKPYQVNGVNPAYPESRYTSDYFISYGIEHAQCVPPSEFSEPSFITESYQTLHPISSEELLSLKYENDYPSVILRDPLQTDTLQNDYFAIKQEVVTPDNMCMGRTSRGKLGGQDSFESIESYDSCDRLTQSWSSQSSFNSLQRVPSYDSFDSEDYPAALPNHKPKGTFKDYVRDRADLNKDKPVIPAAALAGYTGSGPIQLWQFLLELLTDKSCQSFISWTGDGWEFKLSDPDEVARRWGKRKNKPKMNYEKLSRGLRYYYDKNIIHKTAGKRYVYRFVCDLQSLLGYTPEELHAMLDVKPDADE
# Test Description: TF binding intensity (PBM fluorescence), negative control probe (arbitrary fluorescence units); higher = stronger binding
Lab note: write the figure by itself, no unit.

Ask | So what does the record say about TF binding intensity for CCGGGCCGCTGCGGGCTCCCCAGCTCCCCACAGATC (protein concentration 10 nM) ?
Reply | 147

Ask | Can you check TCCAGAATTGCAAGGTCTGGGGAGCTGGGTGCCACA (protein concentration 10 nM) next?
Reply | 107

Ask | Now the same for CTGGATTTCTGTACTTTGGTTGGCTTATATTACATC (protein concentration 10 nM)
Reply | 171

Ask | Same again, this time with CAACGCAGACTACTAACCACTAGAGAATCCCAAGGC (protein concentration 1 nM)
Reply | 485

Ask | Try the sequence GAGCATCACAAGGTCAGAGGAGGGGGCGGCCAGGGT (protein concentration 10 nM)
Reply | 240

Ask | Try the sequence AACACTCAGTGTATTTTAATAAACAACATTTTTTAA (protein concentration 10 nM)
Reply | 96.6

Ask | Same thing, different sequence: TCGAGTGGTGAGAAGGAGAAGGAGCGGCTGGGAGGC (protein concentration 10 nM)
Reply | 137

Ask | Check ATGGCTGGGTCAGAGCGGCCTGTCAGCCCGGCTGGA (protein concentration 10 nM) too.
Reply | 98

Ask | Please give the result for GAAGAGCAGGCCTGGCGTCTGCCCGTGCCAGTGTTT (protein concentration 10 nM) too.
Reply | 102

Ask | Lookup ACTGCGCGCAGGGCCTGCAGCGGCAGCTGGACTGGG (protein concentration 10 nM)
Reply | 120

Ask | Field entry: TAGAAACCGTGTTTTAAATTTAACACTGGTAAGATG (protein concentration 10 nM)
Reply | 113

Ask | # iterate: ATATATAGTAACCACATGATTAATAATAATAATGCA (protein concentration 10 nM)
Reply | 119

Ask | Now the same for GTGAAACCAGGGCACAGGTAGAAATCCCTAGAGCAG (protein concentration 10 nM)
Reply | 138

Ask | Also check AGGTGCACGATGGGTGGGGAGCTGCTCAGGGCACTG (protein concentration 10 nM)
Reply | 112

Ask | Also CTCTGCCCAGTTGGTTGTGGCTCTTCATTACTGTGG (protein concentration 1 nM) ?
Reply | 512

Ask | Next up: AACTTGTCCCTGGAATGTGGTTGAAACAGACTTAGG (protein concentration 1 nM)
Reply | 448

Ask | Follow-up item: TCCAGAAGCAGAGGCTGAGAGAGGGATTCTTGTGCC (protein concentration 10 nM)
Reply | 112

Ask | Request: ATTTGGGTTCCAGCCCGCTAGCCTGCCTTTTCTCAT (protein concentration 10 nM)
Reply | 92.9

Ask | Next sequence: TAAGATCCACTGGCTTGAAATTCTTGCTGCCAGCAC (protein concentration 10 nM)
Reply | 130

Ask | Same for TCCTCAGGGACGTGTGAGAACCTGGCTAGGCAAGAG (protein concentration 10 nM)
Reply | 135

Ask | Repeat for the following sequence: CTACAAGTCGTGAAGGGGCGAGGCGCAAAAGCGTAG (protein concentration 10 nM)
Reply | 125

Ask | Now give it for CCCTGAGGTCTATCTTGCTGCAAATTGAATGCCTGC (protein concentration 10 nM) too.
Reply | 120

Ask | Request: GTCCCCTCAAGGACCCCCAGTGCAGGTGAAAAACTG (protein concentration 10 nM)
Reply | 174

Ask | Ok, now GAAATGGAGCAGAAAACCTGGAACCCAGCTGGGAAG (protein concentration 10 nM)
Reply | 117

Ask | Param item: CTACACATTTTAAAGAAAGAGACCACAGTTCTTTAT (protein concentration 10 nM)
Reply | 122

Ask | Queued: TTCTTTGACTCACTATGCGGGTTGGTACATCTGGGG (protein concentration 1 nM)
Reply | 476

Ask | Entry to check: TATTTCACGCAAATAAGCAGTGACTGAGGACACAGT (protein concentration 10 nM)
Reply | 117

Ask | Entry CTGGTGGCCACCCTTGTGGCGCTGAGGTGCTGAGGT (protein concentration 10 nM) please
Reply | 127

Ask | Same for CAACCTAACTATAATGCAAATAGGGATTCTTTTTCT (protein concentration 10 nM)
Reply | 88.5

Ask | Now the same for ATAAAACACAGTGTACAGTGACCTTTTAATCACAAC (protein concentration 10 nM)
Reply | 132

Ask | And the next one, CACAATAAAGCCGCAACCGCAGGAGGCAGAAGGGTG (protein concentration 1 nM) ?
Reply | 793

Ask | Next record, please: AACTTGAAGTCACCACATGAAAGGTTCCAATGCAGC (protein concentration 10 nM)
Reply | 121

Ask | Repeat with CAGGCATCTGTCATGCCCAGTAATTAATTGCTCCAA (protein concentration 10 nM)
Reply | 117

Ask | Now the sequence GAGATGCAGCAGCGTCTCCCAGTCCTCACCGCGGCC (protein concentration 10 nM)
Reply | 112
